Exercise: for every item that follows, state its recorded inhibition at 3 µM.
- Target System: recombinant human PAI-1 (Homo sapiens, UniProt P05121)
- Sequence (P05121 24-402): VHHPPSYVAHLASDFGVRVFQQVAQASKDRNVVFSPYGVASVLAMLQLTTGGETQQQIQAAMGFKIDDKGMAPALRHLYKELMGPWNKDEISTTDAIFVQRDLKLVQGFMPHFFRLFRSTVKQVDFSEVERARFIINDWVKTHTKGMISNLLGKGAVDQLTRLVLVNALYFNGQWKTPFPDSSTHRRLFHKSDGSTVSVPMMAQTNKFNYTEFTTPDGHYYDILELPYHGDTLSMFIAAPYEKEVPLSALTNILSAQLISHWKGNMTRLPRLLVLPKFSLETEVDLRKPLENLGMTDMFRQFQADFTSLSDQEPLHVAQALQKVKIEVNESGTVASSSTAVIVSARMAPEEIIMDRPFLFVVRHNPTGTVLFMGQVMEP
- Assay: Test Example 2: Human PAI-1 Inhibitory Activity (pH 7.4 HEPES buffer, 10 minutes incubation with two-chain tPA)
- Format: biochemical
- Set-up: purchased Molecular Innovations, Inc
- Condition Label: read-out: Inhibition Rate of PAI-1 Activity (%)

Previously resolved entries follow.
CC(C)(C)c1ccc(-c2ccc(/C=C/C(=O)O)c(Oc3ccc(OC(F)(F)F)cc3)c2)cc1: > 99%
CCCCCCCCCCCCCCCOc1cc(-c2ccc(OC(F)(F)F)cc2)ccc1N(CCCCc1ccccc1)C(=O)C(=O)O: > 99%
CC(C)(C)c1ccc(COc2ccc(-c3ccc(OC(F)(F)F)cc3)cc2N(Cc2ccccc2)C(=O)C(=O)O)cc1: > 99%

Prompt line: Name the recorded inhibition at 3 µM of the compound listed here: CCCCCCCCCOc1ccc(N(CCCCc2ccccc2)C(=O)C(=O)O)cc1-c1ccc(OC(F)(F)F)cc1
Response line: > 99%

====

Exercise: for every item that follows, state its recorded inhibition at 3 µM.
- Target System: recombinant human PAI-1 (Homo sapiens)
- Assay: Test Example 2: Human PAI-1 Inhibitory Activity (pH 7.4 HEPES buffer, 10 minutes incubation with two-chain tPA)
- Format: biochemical
- Design: purchased Molecular Innovations, Inc
- Condition Label: read-out: Inhibition Rate of PAI-1 Activity (%)
- Method: 0.1 M HEPES, 0.1 M NaCl. 1 mM EDTA. 0.1 % Polyethylene glycol 8,000 (Hampton Research Corporation), 2 mM Dimethyldecylphoshine oxide [Apo-10] (Fluka Corporation)

CC(C)(C)c1ccc(Oc2ccc(-c3ccc(C(F)(F)F)cc3)cc2OCC(=O)O)cc1: > 99%
O=C(O)C(=O)N(CCCCc1ccccc1)c1cc(-c2ccc(OC(F)(F)F)cc2)ccc1OC1CCCC1: > 99%
CC(C)(C)c1ccc(COc2c(OCC(=O)O)cccc2-c2ccc(OC(F)(F)F)cc2)cc1: > 99%
CC(C)(C)c1cccc(Oc2cc(-c3ccc(OC(F)(F)F)cc3)ccc2CCC(=O)O)c1: > 99%
CC(C)(C)c1ccc(Oc2cc(Nc3ccc(OC(F)(F)F)cc3)ccc2/C=C/C(=O)O)cc1: 96%
CC(C)(C)c1cccc(Oc2cc(-c3ccc(OC(F)(F)F)cc3)ccc2OCC(=O)O)c1: > 99%
CC(C)(C)c1ccc(Sc2cc(-c3ccc(OC(F)(F)F)cc3)ccc2C(=O)O)cc1: > 99%
CC(C)(C)c1ccc(COc2ccc(Oc3ccc(OC(F)(F)F)cc3)cc2CCC(=O)O)cc1: 96%

Provide inhibition at 3 µM values for the following items, in order.
1. CC(C)(C)c1ccc(Oc2cc(-c3cccc([N+](=O)[O-])c3)ccc2OCC(=O)O)cc1
2. CCCCCOc1cc(-c2ccc(OC(F)(F)F)cc2)cc(OCCCCC)c1OCC(=O)O

Response line:
69%
> 99%

Provide inhibition at 3 µM values for the following items, in order.
1. CCCCCOc1cc(-c2ccc(C(F)(F)F)cc2)ccc1N(CCCCc1ccccc1)C(=O)C(=O)O
2. CC(C)c1ccccc1Oc1cc(-c2ccc(OC(F)(F)F)cc2)ccc1OCC(=O)O
3. CCCCCCCCCOc1cc(-c2ccc(OC(F)(F)F)cc2)ccc1N(CCCCc1ccccc1)C(=O)C(=O)O
4. CC(C)(C)c1ccc(Oc2cc(-c3ccc(OC(F)(F)F)cc3)ccc2CC(=O)O)cc1
5. CC(C)(C)OCCOc1ccc(-c2ccc(OC(F)(F)F)cc2)cc1N(CCCCc1ccccc1)C(=O)C(=O)O
6. CC(C)(C)c1ccc(COc2cc(-c3ccc(OC(F)(F)F)cc3)ccc2OCC(=O)O)cc1

Response line:
1. > 99%
2. > 99%
3. > 99%
4. 87%
5. 84%
6. 99%

All figures here come from patent EP2272817A1.
